From: ChEMBL document CHEMBL2321804

Assign RFU to each entry below.
# target.of.assay: ATP-dependent translocase ABCB1 (Homo sapiens)
# Sequence (P08183 whole entry): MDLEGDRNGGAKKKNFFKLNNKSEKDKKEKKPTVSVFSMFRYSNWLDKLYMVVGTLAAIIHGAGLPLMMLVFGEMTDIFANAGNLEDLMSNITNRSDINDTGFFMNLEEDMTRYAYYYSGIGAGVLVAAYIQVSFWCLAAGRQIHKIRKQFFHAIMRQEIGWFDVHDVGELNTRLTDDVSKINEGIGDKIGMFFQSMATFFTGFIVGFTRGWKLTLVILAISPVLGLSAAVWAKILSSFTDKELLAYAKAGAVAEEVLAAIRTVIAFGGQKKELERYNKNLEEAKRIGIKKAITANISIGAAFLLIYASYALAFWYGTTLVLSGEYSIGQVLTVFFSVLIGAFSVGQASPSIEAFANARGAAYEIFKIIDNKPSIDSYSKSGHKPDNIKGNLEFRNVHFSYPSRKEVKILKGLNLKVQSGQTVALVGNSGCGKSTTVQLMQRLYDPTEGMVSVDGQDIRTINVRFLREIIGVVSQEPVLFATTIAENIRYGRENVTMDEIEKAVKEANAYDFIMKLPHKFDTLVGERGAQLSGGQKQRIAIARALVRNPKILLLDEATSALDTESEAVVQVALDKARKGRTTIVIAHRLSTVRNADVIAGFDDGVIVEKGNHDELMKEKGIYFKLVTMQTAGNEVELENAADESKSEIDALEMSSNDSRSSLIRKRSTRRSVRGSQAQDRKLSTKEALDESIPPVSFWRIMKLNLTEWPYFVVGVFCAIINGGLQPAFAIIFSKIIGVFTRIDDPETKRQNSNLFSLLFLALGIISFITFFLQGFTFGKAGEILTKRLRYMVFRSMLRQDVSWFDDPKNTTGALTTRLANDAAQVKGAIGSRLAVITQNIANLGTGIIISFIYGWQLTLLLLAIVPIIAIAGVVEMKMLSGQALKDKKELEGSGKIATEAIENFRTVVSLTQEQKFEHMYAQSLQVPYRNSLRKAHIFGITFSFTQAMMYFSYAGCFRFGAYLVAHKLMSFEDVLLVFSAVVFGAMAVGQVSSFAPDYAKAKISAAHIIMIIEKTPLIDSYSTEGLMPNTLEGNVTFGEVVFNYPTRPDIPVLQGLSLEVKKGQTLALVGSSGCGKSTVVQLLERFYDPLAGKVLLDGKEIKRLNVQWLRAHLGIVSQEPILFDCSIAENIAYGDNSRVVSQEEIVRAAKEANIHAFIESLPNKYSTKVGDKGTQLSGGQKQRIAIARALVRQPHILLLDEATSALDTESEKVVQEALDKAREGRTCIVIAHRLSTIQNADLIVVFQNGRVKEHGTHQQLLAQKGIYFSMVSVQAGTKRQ
# protocol.notes: Inhibition of human MDR1 expressed in mouse L5178Y cells assessed as […] by measuring fluorescence activity ratio at 10 uM preincubated for 10 mins measured after 40 mins relative to control
# Format: cell-based
Answer as a number with no unit attached.

Task: For the compound shown here, COC(=O)C1=CN(Cc2ccccc2)C=CC1c1cccc(C(F)(F)F)c1 (stereo not drawn) , give the reported RFU.
Result: 1.53

Task: Same thing, different compound: COC(=O)C1=CN(Cc2ccccc2)C=CC1c1ccccc1OC (stereo not drawn)
Result: 1.76

Task: Same thing, different compound: CCOC(=O)C1=CN(Cc2ccc(C)cc2)C=CC1c1ccccc1 (stereo not drawn)
Result: 7.8

Task: Same thing, different compound: CCOC(=O)C1=CN(Cc2ccccc2)C=CC1c1cccc(Br)c1 (stereo not drawn)
Result: 2.76

Task: Same thing, different compound: COC(=O)C1=CN(Cc2cccc3ccccc23)C=CC1c1ccccc1 (stereo not drawn)
Result: 2.19

Task: Same thing, different compound: CCOC(=O)C1=CN(Cc2ccccc2)C=CC1c1cccc(C(F)(F)F)c1 (stereo not drawn)
Result: 2.33

Task: Same thing, different compound: CCOC(=O)C1=CN(Cc2ccccc2)C=CC1c1ccccc1OC (stereo not drawn)
Result: 2.38

Task: Same thing, different compound: COC(=O)C1=CN(Cc2ccc(OC)cc2)C=CC1c1ccccc1 (stereo not drawn)
Result: 4.13

Task: Same thing, different compound: CCOC(=O)C1=CN(Cc2ccc(OC)cc2)C=CC1c1ccccc1 (stereo not drawn)
Result: 4.89

Task: Same thing, different compound: CCOC(=O)C1=CN(Cc2cccc3ccccc23)C=CC1c1ccccc1 (stereo not drawn)
Result: 2.74

Task: Same thing, different compound: COC(=O)C1=CN(Cc2ccccc2)C=CC1c1ccc(OC)cc1 (stereo not drawn)
Result: 2.95

Task: Same thing, different compound: CCOC(=O)C1=CN(Cc2ccccc2OC)C=CC1c1ccccc1 (stereo not drawn)
Result: 4.64

Task: Same thing, different compound: COC(=O)C1=CN(Cc2ccccc2)C=CC1c1cccc(Br)c1 (stereo not drawn)
Result: 1.22

Task: Same thing, different compound: CCOC(=O)C1=CN(Cc2ccccc2)C=CC1c1ccc(C)cc1 (stereo not drawn)
Result: 2.54

Task: Same thing, different compound: COC(=O)C1=CN(Cc2ccccc2)C=CC1c1ccc(C)cc1 (stereo not drawn)
Result: 1.88

Task: Same thing, different compound: CCOC(=O)C1=CN(Cc2ccccc2)C=CC1c1cccc(Cl)c1 (stereo not drawn)
Result: 2.67

Task: Same thing, different compound: CCOC(=O)C1=CN(Cc2ccccc2)C=CC1c1ccc(OC)cc1 (stereo not drawn)
Result: 3.13

Task: Same thing, different compound: CCOC(=O)C1=CN(Cc2ccccc2)C=CC1c1cccc2ccccc12 (stereo not drawn)
Result: 3.45

Task: Same thing, different compound: COC(=O)C1=CN(Cc2ccc(C)cc2)C=CC1c1ccccc1 (stereo not drawn)
Result: 7.8

Task: Same thing, different compound: COc1ccc(CCN(C)CCCC(C#N)(c2ccc(OC)c(OC)c2)C(C)C)cc1OC (stereo not drawn)
Result: 2.94

Task: Same thing, different compound: COC(=O)C1=CN(Cc2ccccc2)C=CC1c1cccc(Cl)c1 (stereo not drawn)
Result: 1.39

Task: Same thing, different compound: COC(=O)C1=CN(Cc2ccccc2)C=CC1c1cccc2ccccc12 (stereo not drawn)
Result: 2.35

Task: Same thing, different compound: COC(=O)C1=CN(Cc2ccccc2OC)C=CC1c1ccccc1 (stereo not drawn)
Result: 3.97
